Consider the following molecules; for each one, report its IC50.
- study.system: Genome polyprotein (dengue virus type 2, UniProt P29990)
- Sequence (P29990 1346-1475 limits assumed): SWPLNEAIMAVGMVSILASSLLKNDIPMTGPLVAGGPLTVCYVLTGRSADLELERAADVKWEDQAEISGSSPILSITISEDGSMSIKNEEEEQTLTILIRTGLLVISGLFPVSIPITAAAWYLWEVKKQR
- Sequence (P29990 1476-2093 limits assumed): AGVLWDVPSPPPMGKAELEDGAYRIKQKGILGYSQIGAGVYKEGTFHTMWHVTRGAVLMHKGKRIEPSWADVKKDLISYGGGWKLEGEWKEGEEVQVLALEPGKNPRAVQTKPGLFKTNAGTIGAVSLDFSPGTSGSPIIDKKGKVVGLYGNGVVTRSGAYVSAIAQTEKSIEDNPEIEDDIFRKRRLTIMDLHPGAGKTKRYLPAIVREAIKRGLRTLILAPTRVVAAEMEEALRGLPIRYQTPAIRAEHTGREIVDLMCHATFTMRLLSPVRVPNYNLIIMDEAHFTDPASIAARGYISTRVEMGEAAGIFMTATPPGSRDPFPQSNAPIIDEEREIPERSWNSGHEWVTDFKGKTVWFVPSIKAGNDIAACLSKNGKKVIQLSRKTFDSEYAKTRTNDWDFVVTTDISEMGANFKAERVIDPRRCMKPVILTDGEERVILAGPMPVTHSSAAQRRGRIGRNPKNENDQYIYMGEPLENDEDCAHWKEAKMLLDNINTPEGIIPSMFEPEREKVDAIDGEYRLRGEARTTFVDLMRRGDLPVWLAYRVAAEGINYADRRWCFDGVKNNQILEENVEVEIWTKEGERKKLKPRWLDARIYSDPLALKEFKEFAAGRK
- Format: functional, Thailand/16681/1984

Q: Provide the reported IC50 (system: Genome polyprotein (dengue virus type 2, UniProt P29990)) for "Cc1ccc([C@@H](NC(=O)OCc2ccccc2)C(=O)Nc2cccc(CN)c2)cc1C(F)(F)F"
Result: > 99.5 µM

Q: Provide the reported IC50 (system: Genome polyprotein (dengue virus type 2, UniProt P29990)) for "Cc1ccc(S(=O)(=O)N2CCC(NS(=O)(=O)c3ccc(Cl)cc3C(=O)O)CC2)cc1"
Result: > 99.5 µM

Q: Provide the reported IC50 (system: Genome polyprotein (dengue virus type 2, UniProt P29990)) for "CS(=O)(=O)c1cc(NC(=O)OCc2ccccc2)cc(C(=O)Nc2cccc(CN)c2)c1"
Result: > 99.5 µM

Q: Provide the reported IC50 (system: Genome polyprotein (dengue virus type 2, UniProt P29990)) for "O=C(Nc1cc(Cl)cc(-c2ccc3cc(C(=O)O)[nH]c3c2)c1)OCc1ccccc1"
Result: 7.42 µM

Q: Provide the reported IC50 (system: Genome polyprotein (dengue virus type 2, UniProt P29990)) for "N#C[C@H](c1cc(Cl)cc(C2CC2)c1)N1c2cnccc2C[C@H]1C(=O)O"
Result: > 99.5 µM

Q: Provide the reported IC50 (system: Genome polyprotein (dengue virus type 2, UniProt P29990)) for "NCc1ccc(CNC(=O)c2cc(Cl)cc(NC(=O)OCc3ccccc3)c2)c(F)c1"
Result: > 99.5 µM

Q: Provide the reported IC50 (system: Genome polyprotein (dengue virus type 2, UniProt P29990)) for "O=C(Nc1cc(-c2cccnc2)ccn1)c1cc(C2CC2)oc1C1CC1"
Result: > 99.5 µM

Q: Provide the reported IC50 (system: Genome polyprotein (dengue virus type 2, UniProt P29990)) for "CC(C)CNC(=O)[C@H](Nc1cccc(-c2nn[nH]n2)c1)c1cc(Cl)cc(NC(=O)OCc2ccccc2)c1"
Result: 12.7 µM

Q: Provide the reported IC50 (system: Genome polyprotein (dengue virus type 2, UniProt P29990)) for "Cc1c(C(=O)Nc2ncc3c(c2C#N)CCOC3)cc(C2CC2)n1C"
Result: > 99.5 µM

Q: Provide the reported IC50 (system: Genome polyprotein (dengue virus type 2, UniProt P29990)) for "CCOC(=O)[C@H]1[C@H](c2cccc(CN)c2)[C@H]1c1cc(Cl)cc(NC(=O)OCc2ccccc2)c1"
Result: > 99.5 µM

Q: Provide the reported IC50 (system: Genome polyprotein (dengue virus type 2, UniProt P29990)) for "CC(C)Cc1nc2c(C(=O)Nc3ccc4c(c3)CNC4)cc(Br)cc2[nH]1"
Result: 56.2 µM

Q: Provide the reported IC50 (system: Genome polyprotein (dengue virus type 2, UniProt P29990)) for "O=C(Nc1ccc2c(c1)CNC2)c1ccc2c(Br)csc2c1"
Result: 58.6 µM

Cited source: ChEMBL document CHEMBL5604063
